# experimental details: Tissue distribution of toremifene and metabolites after 5 days IP vs. topical toremifene (HPLC), mice with MDA A-1 tumors
# experimental conditions: mouse, liver, ip, 1 mg
parameter measured: concentration at 2 h (ng/g)

I. CNCCOc1ccc(C(=C(CCCl)c2ccccc2)c2ccccc2)cc1
II. CN(C)CCOc1ccc(/C(=C(/CCCl)c2ccccc2)c2ccc(O)cc2)cc1 [4-hydroxytoremifene]
Input: Higher concentration at 2 h: I or II ? State the label of the item chosen.
Output: I
(I: 940 ng/g, II: 600 ng/g)

###

# experimental details: Tissue distribution of toremifene after single dose (500 μg) IP vs. topical
# Type: in vivo
# experimental conditions: mouse, tumor, ip, 0.5 mg, Tumor toremifene concentration
parameter measured: concentration at 2 h (ng/g)
Write it as a number; the unit ng/g goes unstated.

Documented concentration at 2 h of CN(C)CCOc1ccc(/C(=C(/CCCl)c2ccccc2)c2ccccc2)cc1 [toremifene] : 2570
